src = patent US20260356924

- Tested On: iPHF (human, UniProt P10636)
- Sequence (P10636 2-758): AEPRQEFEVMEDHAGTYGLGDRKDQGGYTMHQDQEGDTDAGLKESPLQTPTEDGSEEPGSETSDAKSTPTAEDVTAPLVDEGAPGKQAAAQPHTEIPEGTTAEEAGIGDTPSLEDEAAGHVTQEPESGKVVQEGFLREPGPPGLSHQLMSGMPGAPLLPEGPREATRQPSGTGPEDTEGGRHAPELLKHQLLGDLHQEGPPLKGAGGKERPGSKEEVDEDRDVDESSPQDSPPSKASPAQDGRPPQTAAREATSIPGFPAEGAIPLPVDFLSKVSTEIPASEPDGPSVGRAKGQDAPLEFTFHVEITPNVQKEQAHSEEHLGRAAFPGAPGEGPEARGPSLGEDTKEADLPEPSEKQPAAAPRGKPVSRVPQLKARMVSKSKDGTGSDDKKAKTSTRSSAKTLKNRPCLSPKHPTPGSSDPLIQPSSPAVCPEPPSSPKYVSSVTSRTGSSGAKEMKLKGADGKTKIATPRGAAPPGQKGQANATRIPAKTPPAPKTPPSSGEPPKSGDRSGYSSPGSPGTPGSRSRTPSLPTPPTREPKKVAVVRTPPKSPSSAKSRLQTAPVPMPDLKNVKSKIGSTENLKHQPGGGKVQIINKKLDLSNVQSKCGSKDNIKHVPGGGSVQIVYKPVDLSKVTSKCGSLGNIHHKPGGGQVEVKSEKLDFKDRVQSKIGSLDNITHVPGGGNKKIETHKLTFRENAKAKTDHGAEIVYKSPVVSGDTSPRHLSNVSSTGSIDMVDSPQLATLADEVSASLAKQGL
- Experiment: SPR
Recorded pKd by entry
pKd is defined as minus the log10 of a concentration measured in mol/L.

Example entries and their recorded answers appear below.
Ab5 (antibody, V domains shown, immunopurified paired helical filament tau, hyperphosphorylated) VH: QVQLVQSGAEVKKPGASVKVSCKASGFTFTRYWMHWVKERPGQGLEWMGNINPNNGGTDFNEKFKNRVTMTVHKSTSTVFIQLSSLRSEDTAVYYCARGTGTGAMDYWGQGTSVTVSS VL: DIVMTQTPLSSPVTLGQPASISCRSSQSLVHNNGITYLYWYQQRPGQPPRLLIYRVSNRFSGVPDRFSGSGAGTDFTLKINRVEAEDVGVYFCFQGTHVPRTFGQGTKLEIK ... 10.61
hV0022 control (antibody, V domains shown, immunopurified paired helical filament tau, hyperphosphorylated) VH: QVQLQQPGTELVKPGSSVNLSCKASGFTFTRYWMHWVKERPGHGLEWIGNINPNNGGTDFNEKFKNKATLTVHKSSTTVFIQLSSLTSEDSAVYYCARGTGTGAMDYWGQGTSVTVSS VL: DVVMTQTPLSLPVSLGDQASISCRSSQSLVHNNGITYLYWYLQKPGQSPKLLIYRVSNRFSGVPDRFGGSGSGTDFTLKISRVEAEDLGVYFCFQGTHVPRTFGGGTKLEIK ... 10.79

Fill in the blank: the reported pKd of Ab9 (antibody, V domains shown, immunopurified paired helical filament tau, hyperphosphorylated) VH: EVQLVQSGAEVKKPGSSVKVSCKASGFTFTRYWMHWVKERPGHGLEWIGNINPNNGGTDFNEKFKNRVTMTVHKSITTAYMELSRLTSDDSAVYYCARGTGTGAMDYWGQGTLVSVSS VL: DIVMTQSPLSLSVTPGQPASISCRSSQSLVHNNGITYLYWYLQKPGQSPQLLIYRVSNRFSGVPDRFSGSGSGTDFTLKISRVEAEDVGVYYCFQGTHVPRTFGQGTKVEIK is ____.
10.36
